# assay: chemical genetic growth profiling, strain panel (AID 1159580);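 note: tested at 20 µM; growth read once vehicle control cultures reached saturation at 30 °C; 1 = growth at the plate median or of vehicle wells; lower values mean less growth of the strain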
# experimental-context: S. cerevisiae deletion strains, growth OD, locus YDR069C, strain doa4, hits give low values
Hit rate of the full screen: of about 5,500 compounds, about 2,000 (36%) were called active. About 18% were inconclusive and are not listed. The list shows a part of the results.
value-kind: normalized growth

compound=COc1c2ccoc2cc2oc(C)cc(=O)c12 observed=1
compound="CC1=CC2C(C(C)C)CCC(C)(O)C2CC1 (stereo unspecified)" observed=1.01
compound=CNS(=O)(=O)c1ccc(NC(=O)c2ccccc2C(=O)O)cc1 observed=0.995
compound=COc1ccc(C(=O)c2ccc(O)cc2)c(O)c1O observed=0.928
compound=COc1ccc([C@H]2COc3c(ccc(O)c3OC)C2)c(OC)c1O observed=0.979
compound=CN(C)CCc1c[nH]c2ccc(C[C@H]3COC(=O)N3)cc12 observed=1.02
compound="CC(NCCC(c1ccccc1)c1ccccc1)c1ccccc1 (stereo unspecified)" observed=0.57
compound=COc1ccc(C(=O)c2ccccc2)c(O)c1O observed=0.939
compound=COc1ccc2c(c1)[C@]13CCCC[C@H]1[C@H](C2)N(C)CC3 observed=0.943
compound=CCCCc1nc(Cl)c(CO)n1Cc1ccc(-c2ccccc2-c2nn[nH]n2)cc1 observed=0.975
compound=COc1c2occc2c(OC)c2c(=O)cc(C)oc12 observed=0.985
compound="C1CCC(C(CC2CCCCN2)C2CCCCC2)CC1 (stereo unspecified)" observed=0.706
compound=CC(=O)NO observed=1.01
compound="CC(=O)Oc1cc2c(c(C)c1OC(C)=O)CC1OC13C2(C)CCC1(C)C2CC(C)(C(=O)O)CCC2(C)CCC13C (stereo unspecified)" observed=1.01
compound=CCOc1ccc(C(=O)c2ccc(O)c(O)c2O)cc1 observed=0.703
compound=CCOc1ccc(C(=O)c2cc(O)c(OC)c(OC)c2O)cc1 observed=0.969
compound=CCOc1ccc(C(=O)c2ccc(OC)c(O)c2O)cc1 observed=0.974
compound=CC(=O)NS(=O)(=O)c1ccc(NC(=O)c2ccccc2C(=O)O)cc1 observed=1.02
compound="CC(=O)CC1CCCCN1 (stereo unspecified)" observed=1.01
compound=COc1ccc2c(=O)ccoc2c1 observed=1.02
compound="OC(c1cc(C(F)(F)F)nc2c(C(F)(F)F)cccc12)C1CCCCN1 (stereo unspecified)" observed=1.01
compound="CNC(Cc1c[nH]c2ccccc12)C(=O)O (stereo unspecified)" observed=0.991
compound=CNS(=O)(=O)Cc1ccc2[nH]cc(CCN(C)C)c2c1 observed=1.02
compound=CCOc1ccc(NC(C)=O)cc1 observed=1
compound=NC(=O)NO observed=1.02
compound=COc1cc2cc3c4cc(OC)c(OC)cc4cc[n+]3c(C)c2cc1OC observed=1.02

###

Consider the following compounds and their measured normalized growth readings.
# assay: chemical genetic growth profiling, strain panel (AID 1159580);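 note: tested at 20 µM; growth read once vehicle control cultures reached saturation at 30 °C; 1 = growth at the plate median or of vehicle wells; lower values mean less growth of the strain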
# experimental-context: S. cerevisiae deletion strains, growth OD, locus YGL248W, strain PDE1, hits give low values
Screen size: about 5,500 compounds; about 2,000 (36%) were called active. Another 18% or so got no clear call; they are omitted. The list shows a part of the results.
value-kind: normalized growth

compound="CC1(C)C(=O)[C@@H]2C[C@@]3(O)C4=CC(=O)O[C@@H](c5ccoc5)[C@]4(C)CCC3[C@@](C)(C2=O)[C@H]1CC(=O)O (some centres undefined)" observed=1
compound=Cc1onc(-c2ccccc2Cl)c1C(=O)N[C@@H]1C(=O)N2[C@@H]1SC(C)(C)[C@@H]2C(=O)O observed=1.02
compound=CC(=O)N[C@@H](Cc1c[nH]c2ccccc12)C(=O)O observed=1.04
compound="Cc1onc(-c2ccccc2)c1C(=O)NC1C(=O)N2[C@@H]1SC(C)(C)[C@@H]2C(=O)O (some centres undefined)" observed=1

Where do the numbers come from? From PubChem BioAssay AID1159580.
